For each entry below, report its Kd value.
target_or_test_system: T1, human Granzyme B (human, UniProt P10144 21-247)
T1 construct: Captured on a Series S Streptavidin chip for SPR; also called hGranzyme B; GzmB
T1 sequence (P10144 21-247 limits assumed): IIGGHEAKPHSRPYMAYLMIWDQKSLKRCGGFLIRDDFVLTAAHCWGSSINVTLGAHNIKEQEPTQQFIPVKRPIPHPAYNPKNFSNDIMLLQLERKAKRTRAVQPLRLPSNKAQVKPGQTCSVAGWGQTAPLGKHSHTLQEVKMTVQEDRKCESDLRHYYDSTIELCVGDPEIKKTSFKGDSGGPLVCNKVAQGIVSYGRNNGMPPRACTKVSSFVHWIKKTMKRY
measurement_description: SPR, Biacore 8k+, hGranzyme B captured on SA chip, single cycle kinetics, 1:1 model
Bridge positions count the residues as written; N and C are the ends. * marks the point of attachment. NOTA‑1 = 1,4,7-triazacyclononane-N,N',N''-triacetic acid phenyl thiourea; Propionyl = CCC(=O)*
Number only, in nM; omit the unit.

Inquiry: Give recorded Kd. {CH2CO}-FNFEDQGPDTWQPCG-NH2 (thioether N-14; SMILES C[C@@H](O)[C@@H]1NC(=O)[C@H](CC(=O)O)NC(=O)[C@@H]2CCCN2C(=O)CNC(=O)[C@H](CCC(N)=O)NC(=O)[C@H](CC(=O)O)NC(=O)[C@H](CCC(=O)O)NC(=O)[C@H](Cc2ccccc2)NC(=O)[C@H](CC(N)=O)NC(=O)[C@H](Cc2ccccc2)NC(=O)CSC[C@@H](C(=O)NCC(N)=O)NC(=O)[C@@H]2CCCN2C(=O)[C@H](CCC(N)=O)NC(=O)[C@H](Cc2c[nH]c3ccccc23)NC1=O) [Compound 63a]
Reply text: 7.1

Inquiry: Give recorded Kd. {CH2CO}-FNFEDQSADTWQPCGGK(NOTA‑1)-NH2 (thioether N-14) [Compound 2a]
Reply text: 13.5

Inquiry: Give recorded Kd. {CH2CO}-FNFEDQSADTWQPCGGK(Propionyl)-NH2 (thioether N-14) [Compound 4a]
Reply text: 11.7
